Target: T1, neuropeptide Y receptor Y2 (UniProt P49146 1-381)
T1 construct: receptor of NPY, Y2; source: U2OS cells stably expressing the receptor, bought: Thermo Fisher Scientific; on cells
T1 sequence (looked up): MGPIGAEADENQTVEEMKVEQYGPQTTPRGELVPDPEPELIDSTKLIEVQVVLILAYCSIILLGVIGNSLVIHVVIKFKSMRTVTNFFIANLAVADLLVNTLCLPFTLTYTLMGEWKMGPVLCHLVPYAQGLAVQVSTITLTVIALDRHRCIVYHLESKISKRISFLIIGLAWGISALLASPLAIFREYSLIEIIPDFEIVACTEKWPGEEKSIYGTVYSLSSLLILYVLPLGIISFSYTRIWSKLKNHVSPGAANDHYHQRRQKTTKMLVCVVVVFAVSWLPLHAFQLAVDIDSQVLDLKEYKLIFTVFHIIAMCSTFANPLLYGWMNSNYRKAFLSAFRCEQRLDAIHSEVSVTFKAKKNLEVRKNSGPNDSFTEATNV
Assay: radioligand binding; competition with 0.1 nM [^125I]-PYY on U2OS cells with Y1, Y2 or Y5; 25 mM HEPES, 120 mM NaCl, 5 mM MgCl2, 4.7 mM KCl, 1 mM CaCl2, 0.5% BSA, 2 g/L glucose; peptides 10^-12 to 10^-5 M; 60 min at RT; Ki by the Cheng-Prusoff equation
Settings: one partner purified
Starred links: 1 amine or outer side, 2 acyl side, 3 side chain; linkers in the order of their positions; H or OH if unused. Groups on a side chain read outwards from the residue. No end group written: not given here. *: point of attachment. γGlu = O=C(O)[C@H](CCC(=O)[*:2])N[*:1]; Palmitoyl = CCCCCCCCCCCCCCCC(=O)*
MEASUREMENT_TYPE: Ki

BINDER	VAL
SRTHRHSMEIK([γGlu-Palmitoyl])TPDINPAWYASRGIRPVGRF-NH2 (analog of human PrRP31 with Arg11 replaced by Lys11 that carries palmitic acid through a gamma-Glu linker; numbers count on: the peptide PrRP31; source: synthetic peptide, palmitoylated on resin, purified (HPLC, purity greater than 95%)) [Palm^11-PrRP31]	> 10 µM
